- Experiment Summary: Light illumination test (intense light, 4500±500 Lx)
- Format: physicochemical
- Condition Notes: light 4500±500 Lx, 10th day; hydrochloride
Structures can show the parent of a compound that is named as a salt.

- Compound: "Cc1nc(Nc2ccc(F)cc2)nc(N2CCc3ccccc3C2C)c1C (single isomer, unassigned) [revaprazan hydrochloride crystalline form I]"
  Relevant substances: "Not detected"
- Compound: "Cc1nc(Nc2ccc(F)cc2)nc(N2CCc3ccccc3C2C)c1C (single isomer, unassigned) [revaprazan hydrochloride crystalline form V]"
  Relevant substances: "Undetected"
- Compound: "Cc1nc(Nc2ccc(F)cc2)nc(N2CCc3ccccc3C2C)c1C (single isomer, unassigned) [revaprazan hydrochloride crystalline form IV]"
  Relevant substances: "Undetected"
- Compound: "Cc1nc(Nc2ccc(F)cc2)nc(N2CCc3ccccc3C2C)c1C (single isomer, unassigned) [revaprazan hydrochloride crystalline form II]"
  Relevant substances: "Not detected"

====

- Experiment Summary: High temperature test (60° C. incubator)
- Assay type: physicochemical
- Condition Notes: 60° C., 5th day; hydrochloride
Counter-ions that a name gives are not always drawn.
Endpoint: Appearance color

- Compound: "Cc1nc(Nc2ccc(F)cc2)nc(N2CCc3ccccc3C2C)c1C (single isomer, unassigned) [revaprazan hydrochloride crystalline form II]"
  Endpoint: "Appearance color"
  Result: "White"
- Compound: "Cc1nc(Nc2ccc(F)cc2)nc(N2CCc3ccccc3C2C)c1C (single isomer, unassigned) [revaprazan hydrochloride crystalline form V]"
  Endpoint: "Appearance color"
  Result: "White powder"
- Compound: "Cc1nc(Nc2ccc(F)cc2)nc(N2CCc3ccccc3C2C)c1C (single isomer, unassigned) [revaprazan hydrochloride crystalline form IV]"
  Endpoint: "Appearance color"
  Result: "White powder"
- Compound: "Cc1nc(Nc2ccc(F)cc2)nc(N2CCc3ccccc3C2C)c1C (single isomer, unassigned) [revaprazan hydrochloride crystalline form I]"
  Endpoint: "Appearance color"
  Result: "White powder"

====

- Experiment Summary: Accelerated test (40±2° C., relative humidity 75±5%, 6 months, sealed polyethylene film bag)
- Type: physicochemical
- Condition Notes: 40±2° C., RH 75±5%, 3rd month; hydrochloride
- Experimental: Revaprazan hydrochloride crystalline form I is sealed in a polyethylene film bag, is placed for 6 months under the conditions that the temperature is 40±2° C. and the relative humidity is 75±5%, and is respectively sampled at the end of the 1st Month, the 2nd Month, the 3rd Month and the 6^thMonth for detection; and the results are shown in Table 4. […]
Counter-ions that a name gives are not always drawn.
Endpoint: Purity (%)
The answer is to be given in %; state only the numeric part.

- Compound: "Cc1nc(Nc2ccc(F)cc2)nc(N2CCc3ccccc3C2C)c1C (single isomer, unassigned) [revaprazan hydrochloride crystalline form IV]"
  Output Unit: "%"
  Purity (%): 99.95
- Compound: "Cc1nc(Nc2ccc(F)cc2)nc(N2CCc3ccccc3C2C)c1C (single isomer, unassigned) [revaprazan hydrochloride crystalline form II]"
  Output Unit: "%"
  Purity (%): 99.96

query: Let me know recorded Purity (%) for Cc1nc(Nc2ccc(F)cc2)nc(N2CCc3ccccc3C2C)c1C (single isomer, unassigned) [revaprazan hydrochloride crystalline form I] , thanks.
result: 99.96

query: Let me know recorded Purity (%) for Cc1nc(Nc2ccc(F)cc2)nc(N2CCc3ccccc3C2C)c1C (single isomer, unassigned) [revaprazan hydrochloride crystalline form V] , thanks.
result: 99.97

query: Let me know recorded Purity (%) for Cc1nc(Nc2ccc(F)cc2)nc(N2CCc3ccccc3C2C)c1C (single isomer, unassigned) [revaprazan hydrochloride crystalline form III] , thanks.
result: 99.93

====

- Experiment Summary: Light illumination test (intense light, 4500±500 Lx)
- Assay type: physicochemical
- Condition Notes: light 4500±500 Lx, 5th day; hydrochloride
Structures can show the parent of a compound that is named as a salt.
Endpoint: Relevant substances

- Compound: "Cc1nc(Nc2ccc(F)cc2)nc(N2CCc3ccccc3C2C)c1C (single isomer, unassigned) [revaprazan hydrochloride crystalline form I]"
  Result: "Not detected"
- Compound: "Cc1nc(Nc2ccc(F)cc2)nc(N2CCc3ccccc3C2C)c1C (single isomer, unassigned) [revaprazan hydrochloride crystalline form II]"
  Result: "Not detected"
- Compound: "Cc1nc(Nc2ccc(F)cc2)nc(N2CCc3ccccc3C2C)c1C (single isomer, unassigned) [revaprazan hydrochloride crystalline form V]"
  Result: "Undetected"
- Compound: "Cc1nc(Nc2ccc(F)cc2)nc(N2CCc3ccccc3C2C)c1C (single isomer, unassigned) [revaprazan hydrochloride crystalline form IV]"
  Result: "Undetected"

====

- Experiment Summary: High temperature test (60° C. incubator)
- Format: physicochemical
- Condition Notes: 60° C., 10th day; hydrochloride
- Procedure: Revaprazan hydrochloride crystalline form I is placed in a 60° C. incubator, and is sampled on the 5th day and 10th day for detection, and the results are shown in Table 2. Revaprazan hydrochloride crystalline form II is placed in a 60° C. incubator, and is sampled on the 5th day and 10th day for detection, and the results are shown in Table 6. Revaprazan hydrochloride polymorph III is placed in an incubator of 60° C., and is sampled on the 5th day and the 10th day for detection. […]
Counter-ions that a name gives are not always drawn.
Endpoint: Purity (%)
The answer is to be given in %; state only the numeric part.

The following compounds have reported results that may help.
- Compound: "Cc1nc(Nc2ccc(F)cc2)nc(N2CCc3ccccc3C2C)c1C (single isomer, unassigned) [revaprazan hydrochloride crystalline form V]"
  Output Unit: "%"
  Purity (%): 99.92
- Compound: "Cc1nc(Nc2ccc(F)cc2)nc(N2CCc3ccccc3C2C)c1C (single isomer, unassigned) [revaprazan hydrochloride crystalline form I]"
  Output Unit: "%"
  Purity (%): 99.98
- Compound: "Cc1nc(Nc2ccc(F)cc2)nc(N2CCc3ccccc3C2C)c1C (single isomer, unassigned) [revaprazan hydrochloride crystalline form II]"
  Output Unit: "%"
  Purity (%): 99.95

query: Let me know recorded Purity (%) for Cc1nc(Nc2ccc(F)cc2)nc(N2CCc3ccccc3C2C)c1C (single isomer, unassigned) [revaprazan hydrochloride crystalline form IV] , thanks.
result: 99.92

====

- Experiment Summary: Light illumination test (intense light, 4500±500 Lx)
- Assay type: physicochemical
- Condition Notes: light 4500±500 Lx, 5th day
- Description: Revaprazan hydrochloride crystalline form I is irradiated under such a condition that the light intensity is 4500±500 Lx, and is sampled on the 5th day and 10th day for detection, and the results are shown in Table 1. Revaprazan hydrochloride crystalline form II is irradiated under the condition that the light intensity is 4500±500Lx, and is sampled on the 5th day and 10th day for detection. […]
Where a name gives a salt, the structure may show the parent alone.
Endpoint: Appearance color

- Compound: "Cc1nc(Nc2ccc(F)cc2)nc(N2CCc3ccccc3C2C)c1C (single isomer, unassigned) [revaprazan hydrochloride crystalline form I]"
  Appearance color: "White powder"
- Compound: "Cc1nc(Nc2ccc(F)cc2)nc(N2CCc3ccccc3C2C)c1C (single isomer, unassigned) [revaprazan hydrochloride crystalline form V]"
  Appearance color: "White powder"
- Compound: "Cc1nc(Nc2ccc(F)cc2)nc(N2CCc3ccccc3C2C)c1C (single isomer, unassigned) [revaprazan hydrochloride crystalline form III]"
  Appearance color: "White powder"
- Compound: "Cc1nc(Nc2ccc(F)cc2)nc(N2CCc3ccccc3C2C)c1C (single isomer, unassigned) [revaprazan hydrochloride crystalline form IV]"
  Appearance color: "White powder"

query: Let me know recorded Appearance color for Cc1nc(Nc2ccc(F)cc2)nc(N2CCc3ccccc3C2C)c1C (single isomer, unassigned) [revaprazan hydrochloride crystalline form II] , thanks.
result: White powder

====

- Experiment Summary: High humidity test (25° C., relative humidity 75±5%)
- Type: physicochemical
- Condition Notes: 25° C., RH 75±5%, 10th day; hydrochloride
Counter-ions that a name gives are not always drawn.
Endpoint: Purity (%)
The answer is to be given in %; state only the numeric part.

- Compound: "Cc1nc(Nc2ccc(F)cc2)nc(N2CCc3ccccc3C2C)c1C (single isomer, unassigned) [revaprazan hydrochloride crystalline form II]"
  Purity (%): 99.95
- Compound: "Cc1nc(Nc2ccc(F)cc2)nc(N2CCc3ccccc3C2C)c1C (single isomer, unassigned) [revaprazan hydrochloride crystalline form I]"
  Purity (%): 99.95
- Compound: "Cc1nc(Nc2ccc(F)cc2)nc(N2CCc3ccccc3C2C)c1C (single isomer, unassigned) [revaprazan hydrochloride crystalline form IV]"
  Purity (%): 99.93
- Compound: "Cc1nc(Nc2ccc(F)cc2)nc(N2CCc3ccccc3C2C)c1C (single isomer, unassigned) [revaprazan hydrochloride crystalline form III]"
  Purity (%): 99.94

Next compound, please.
query: Let me know recorded Purity (%) for Cc1nc(Nc2ccc(F)cc2)nc(N2CCc3ccccc3C2C)c1C (single isomer, unassigned) [revaprazan hydrochloride crystalline form V] , thanks.
result: 99.96

====

- Experiment Summary: High temperature test (60° C. incubator)
- Format: physicochemical
- Condition Notes: 60° C., Day 0; hydrochloride
Counter-ions that a name gives are not always drawn.

- Compound: "Cc1nc(Nc2ccc(F)cc2)nc(N2CCc3ccccc3C2C)c1C (single isomer, unassigned) [revaprazan hydrochloride crystalline form II]"
  Relevant substances: "Not detected"
- Compound: "Cc1nc(Nc2ccc(F)cc2)nc(N2CCc3ccccc3C2C)c1C (single isomer, unassigned) [revaprazan hydrochloride crystalline form V]"
  Relevant substances: "Undetected"
- Compound: "Cc1nc(Nc2ccc(F)cc2)nc(N2CCc3ccccc3C2C)c1C (single isomer, unassigned) [revaprazan hydrochloride crystalline form IV]"
  Relevant substances: "Undetected"
- Compound: "Cc1nc(Nc2ccc(F)cc2)nc(N2CCc3ccccc3C2C)c1C (single isomer, unassigned) [revaprazan hydrochloride crystalline form I]"
  Relevant substances: "Not detected"

These data points were gathered from patent US20170334877A1.
